procedure details: A CellTox Green Cytotoxicity Assay to monitor cytotoxicity in HEK293 cells - 0 hour (AID 1224869); further: nearly all actives have a fitted effect of over 50% in size
details: CellTox Green fluorescence; series mostly up to 76.8 µM
The source made the active and inactive calls. The call rests on the fitted dose curve; in most records, active means well fitted activation curve with a large enough effect in the repeat runs; inconclusive means weak or mixed curves; inactive means flat fitted curve, though single readings scatter.
Permitted responses: active, inactive

>>> group("Cc1ncc2n1-c1ccc(Cl)cc1C(c1ccccc1F)=NC2")
"inactive"
>>> group("CCOP(=S)(OCC)Oc1nc(Cl)n(C(C)C)n1")
"inactive"
>>> group("CC(C)CP(=S)(S)CC(C)C")
"inactive"
>>> group("CCOP(=S)(OCC)SCSc1ccc(Cl)cc1")
"inactive"
>>> group("CNC(=O)Oc1ccccc1C1OCCO1")
"inactive"
>>> group("CC(=O)CC(c1ccc(Cl)cc1)c1c(O)c2ccccc2oc1=O (stereo not drawn)")
"inactive"
>>> group("COP(N)(=S)Oc1ccccc1C(=O)OC(C)C (stereo not drawn)")
"inactive"
>>> group("O=[N+]([O-])c1cccc(O)c1")
"inactive"

Note: attention shifts to another entry.
Request: Recorded call for O=C(Nc1ccccc1)c1ccccc1I ?
Result: inactive

---

procedure details: qHTS RealTime-Glo MT Cell Viability Assay in HepG2 cells - 40 hour (AID 1224870); further: nearly all actives have a fitted effect of over 50% in size
details: RealTime-Glo luminescence; series mostly up to 76.8 µM
Results filed as inconclusive are left out. Calls of active or inactive are those of the source. The call rests on the fitted dose curve; in most records, active means well fitted cell-killing curve with a large enough effect in the repeat runs; inconclusive means weak or mixed curves, or effect the other way; inactive means flat fitted curve, though single readings scatter.
Permitted responses: active, inactive

For orientation, consider the following solved cases.
>>> group("N#Cc1ccncc1")
"inactive"
>>> group("Cc1ccccc1CO[C@@H]1C[C@@]2(C(C)C)CC[C@]1(C)O2")
"inactive"

Request: Recorded call for N#CC(Cl)(Cl)Cl ?
Result: inactive

Request: Recorded call for COc1cc(C[C@@H](C)N)c(OC)cc1C ?
Result: inactive

Request: Recorded call for COc1ccc(C(=O)N2CCCC2=O)cc1 ?
Result: inactive

Request: Recorded call for O=C1CN=C(c2ccccc2)c2cc([N+](=O)[O-])ccc2N1 ?
Result: inactive

Request: Recorded call for CCCCCCBr ?
Result: inactive

---

target under test: Cytochrome P450 1A2 (Homo sapiens)
procedure details: Cytochrome P450 Family 1 Subfamily A Member 2 (CYP1A2) small molecule antagonists: luciferase reporter qHTS assay (AID 1671199); further: nearly all actives have a fitted effect of over 50% in size
details: P450-Glo CYP1A2 enzyme, luciferin luminescence, 1 h; series mostly up to 115 µM
Records with an inconclusive call do not appear. The source made the active and inactive calls. Calls follow the shape of the dose curve; as a rule, active = well fitted inhibition curve with a large enough effect in the repeat runs; inconclusive = weak or mixed curves; inactive = no such curve, though single readings can be large or run the other way.
Permitted responses: 1 (yes) (active), 0 (no) (inactive)

>>> group("CC1=NNC(=O)N(/N=C/c2cccnc2)C1")
"1 (yes)"
>>> group("CN(N=O)C(N)=O")
"0 (no)"
>>> group("C[C@]12CC[C@H]3[C@@H](CCC4=CC(=O)CC[C@@]43C)[C@@H]1CC[C@@H]2C(=O)O")
"0 (no)"

Request: Recorded call for CC(=O)C(Cl)Cl ?
Result: 0 (no)

Request: Recorded call for COc1cccc2c1cc([N+](=O)[O-])c1c(C(=O)O)cc3c(c12)OCO3 ?
Result: 1 (yes)

Request: Recorded call for COC(=O)C1=CCCN(C)C1 ?
Result: 0 (no)

Request: Recorded call for CNC(=O)Oc1c(C(C)(C)C)cc(C)cc1C(C)(C)C ?
Result: 0 (no)

Request: Recorded call for N#CCCC#N ?
Result: 0 (no)

Request: Recorded call for CCOC(=O)N(C)C(=O)CSP(=S)(OCC)OCC ?
Result: 1 (yes)

Request: Recorded call for NC(=O)c1cc([N+](=O)[O-])cc([N+](=O)[O-])c1 ?
Result: 0 (no)

Request: Recorded call for O=C(O)c1cccc(Cl)c1 ?
Result: 1 (yes)

Request: Recorded call for CCOC(=O)CP(=O)(OCC)OCC ?
Result: 0 (no)

Request: Recorded call for O=C1OC(=O)C2C1C1(Cl)C(Cl)=C(Cl)C2(Cl)C1(Cl)Cl (centres undefined) ?
Result: 0 (no)

Request: Recorded call for CC(Oc1ccc(Oc2ncc(C(F)(F)F)cc2Cl)cc1)C(=O)O (centres undefined) ?
Result: 1 (yes)
